Value source: PubChem BioAssay AID1259407

- Tested on: CCRIS mutagenicity, Ames/micronucleus/aberration tests
- assay.overview: CCRIS mutagenicity studies
- study.conditions: Test System: AMES SALMONELLA TYPHIMURIUM; Strain/Indicator: TA100; Metabolic Activation: NONE; Method: PREINCUBATION
Activity calls are given as the source filed them. The rule behind the calls is not given here.
Classes used: active, inactive

| compound | assigned.class |
| --- | --- |
| O=C(Cl)c1ccc(C(=O)Cl)cc1 | active |
| COC1=C(OC)C(=O)C(C/C=C(\C)CC/C=C(\C)CC/C=C(\C)CC/C=C(\C)CC/C=C(\C)CC/C=C(\C)CC/C=C(\C)CC/C=C(\C)CC/C=C(\C)CCC=C(C)C)=C(C)C1=O | inactive |
| S=[Se] | inactive |
| COc1cc(CCCS(=O)(=O)O)ccc1O[C@H](Cc1cccc(OC)c1O)CS(=O)(=O)O | inactive |
| Nc1nc(NO)c2[nH]cnc2n1 | active |
| Nc1ccc(Cc2ccc(N)c(Cc3ccc(N)cc3)c2)cc1 | inactive |
